- TARGET OR SYSTEM: bovine trypsin (Bos taurus)
- ASSAY EXPLANATION: Trypsin inhibitory activity of peptides (BApNA hydrolysis, OD405; IC50, Ki, residual activity)
- Type: biochemical
- REPORTED CONDITIONS: peptide 9.76 μM
Bridge positions count the residues as written; N and C are the ends. Square brackets hold non-standard residues; d marks the D form. Peptide text beside a SMILES is read from it. Nle = CCCC[C@H](N)C(=O)O
Assignment: determine reported Residual trypsin activity for the given compounds.
Respond numerically; units are % and should not be typed.

Entry CC[C@H](C)[C@@H]1NC(=O)[C@@H]2CCCN2C(=O)[C@@H]2CCCN2C(=O)[C@H]([C@@H](C)CC)NC(=O)[C@H](C)NC(=O)[C@H](CCCCN)NC(=O)[C@H]([C@@H](C)O)NC(=O)[C@H](C)NC(=O)[C@H](CCCNC(=N)N)NC(=O)CNC(=O)[C@@H](N)CSSC[C@@H](C(=O)N[C@@H](Cc2ccccc2)C(=O)O)NC1=O [BT27] (H-CGRATKAIPPICF-OH; disulfide 1-12; C-terminus assumed) has what Residual trypsin activity?
0.1

Entry CCCC[C@@H]1NC(=O)[C@H](CCCNC(=N)N)NC(=O)CNC(=O)[C@@H](N)CSSC[C@@H](C(=O)N[C@@H](Cc2ccccc2)C(=O)O)NC(=O)[C@H]([C@@H](C)CC)NC(=O)[C@@H]2CCCN2C(=O)[C@@H]2CCCN2C(=O)[C@H]([C@@H](C)CC)NC(=O)[C@H](CO)NC(=O)[C@H](CCCCN)NC(=O)[C@H]([C@@H](C)O)NC1=O [BT50] (H-CGR[Nle]TKSIPPICF-OH; disulfide 1-12; C-terminus assumed) has what Residual trypsin activity?
0.0

Entry CC[C@H](C)[C@@H]1NC(=O)[C@@H]2CCCN2C(=O)[C@@H]2CCCN2C(=O)[C@H]([C@@H](C)CC)NC(=O)[C@H](CO)NC(=O)[C@H](CCCCN)NC(=O)[C@H]([C@@H](C)O)NC(=O)CNC(=O)[C@H](CCCCN)NC(=O)[C@H](C)NC(=O)CNC(=O)[C@@H](N)CSSC[C@@H](C(=O)N[C@@H](Cc2ccccc2)C(=O)N2CCC[C@H]2C(=O)N[C@@H](CC(=O)O)C(=O)O)NC1=O [BT2] (H-CGAKGTKSIPPICFPD-OH; disulfide 1-13; N-terminus and C-terminus assumed) has what Residual trypsin activity?
4.2

Entry CC[C@H](C)[C@@H]1NC(=O)[C@@H]2CCCN2C(=O)[C@@H]2CCCN2C(=O)[C@H]([C@@H](C)CC)NC(=O)[C@H](CO)NC(=O)[C@H](CCCCN)NC(=O)[C@H]([C@@H](C)O)NC(=O)[C@@H](NC(=O)[C@@H](N)CCCNC(=N)N)CSSC[C@@H](C(=O)N[C@@H](Cc2ccccc2)C(=O)O)NC1=O [BT45] (H-RCTKSIPPICF-OH; disulfide 2-10; C-terminus assumed) has what Residual trypsin activity?
0.0

Entry CC[C@H](C)[C@@H]1NC(=O)[C@@H]2CCCN2C(=O)[C@@H]2CCCN2C(=O)[C@H]([C@@H](C)CC)NC(=O)[C@H](CO)NC(=O)[C@H](CCCCN)NC(=O)[C@H]([C@@H](C)O)NC(=O)[C@H](C)NC(=O)[C@H](CCCCN)NC(=O)[C@H](C)NC(=O)CNC(=O)[C@@H](N)CSSC[C@@H](C(=O)N[C@@H](Cc2ccccc2)C(=O)N2CCC[C@H]2C(=O)N[C@@H](CC(=O)O)C(=O)O)NC1=O [BT3] (H-CGAKATKSIPPICFPD-OH; disulfide 1-13; N-terminus and C-terminus assumed) has what Residual trypsin activity?
0.9

* * *

- TARGET OR SYSTEM: α-chymotrypsin (Bos taurus)
- ASSAY EXPLANATION: Chymotrypsin inhibitory activity of peptides (AAPFpNA hydrolysis; IC50, Ki, residual activity)
- Assay type: biochemical
- REPORTED CONDITIONS: peptide 0.1 μM
Bridge positions count the residues as written; N and C are the ends. Peptide text beside a SMILES is read from it.
MEASURED ENDPOINT: Residual activity of chymotrypsin (%)
Respond numerically; units are % and should not be typed.

Entry CC[C@H](C)[C@@H]1NC(=O)[C@H](CO)NC(=O)[C@H](Cc2ccc(O)cc2)NC(=O)[C@H]([C@@H](C)O)NC(=O)[C@@H](NC(=O)[C@@H](N)CO)CSSC[C@@H](C(=O)N[C@@H](Cc2ccc(O)cc2)C(=O)NCC(=O)O)NC(=O)[C@H](CCC(N)=O)NC(=O)[C@@H]2CCCN2C(=O)[C@@H]2CCCN2C1=O [CH4] (H-SCTYSIPPQCYG-OH; disulfide 2-10; N-terminus and C-terminus assumed) has what Residual activity of chymotrypsin?
100.7

Entry CC[C@H](C)[C@@H]1NC(=O)[C@@H]2CCCN2C(=O)[C@@H]2CCCN2C(=O)[C@H]([C@@H](C)CC)NC(=O)[C@H](CO)NC(=O)[C@H](Cc2ccccc2)NC(=O)[C@H]([C@@H](C)O)NC(=O)[C@H](C)NC(=O)[C@H]([C@@H](C)O)NC(=O)CNC(=O)[C@@H](N)CSSC[C@@H](C(=O)N[C@@H](CC(N)=O)C(=O)O)NC1=O [CH27] (H-CGTATFSIPPICN-OH; disulfide 1-12; N-terminus and C-terminus assumed) has what Residual activity of chymotrypsin?
105.3

Entry CC[C@H](C)[C@@H]1NC(=O)[C@H](CO)NC(=O)[C@H](Cc2ccccc2)NC(=O)[C@H]([C@@H](C)O)NC(=O)CNC(=O)[C@H](Cc2ccccc2)NC(=O)CNC(=O)[C@@H](N)CSSC[C@@H](C(=O)N[C@@H](Cc2ccc(O)cc2)C(=O)NCC(=O)O)NC(=O)[C@H](CCC(N)=O)NC(=O)[C@@H]2CCCN2C(=O)[C@@H]2CCCN2C1=O [CH7] (H-CGFGTFSIPPQCYG-OH; disulfide 1-12; N-terminus and C-terminus assumed) has what Residual activity of chymotrypsin?
98.8

* * *

Assignment: determine reported Residual trypsin activity for the given compounds.
- TARGET OR SYSTEM: bovine trypsin (Bos taurus, UniProt P00760)
- ASSAY EXPLANATION: Trypsin inhibitory activity of peptides (BApNA hydrolysis, OD405; IC50, Ki, residual activity)
- Type: biochemical
- REPORTED CONDITIONS: peptide 1.95 μM
Bridge positions count the residues as written; N and C are the ends. Peptide text beside a SMILES is read from it.
Respond numerically; units are % and should not be typed.

Entry CC[C@H](C)[C@@H]1NC(=O)[C@@H]2CCCN2C(=O)[C@@H]2CCCN2C(=O)[C@H]([C@@H](C)CC)NC(=O)[C@H](CO)NC(=O)[C@H](CCCCN)NC(=O)[C@H]([C@@H](C)O)NC(=O)CNC(=O)[C@H](CCCCN)NC(=O)[C@H](C)NC(=O)CNC(=O)[C@@H](N)CSSC[C@@H](C(=O)N[C@@H](Cc2ccccc2)C(=O)N2CCC[C@H]2C(=O)N[C@@H](CC(=O)O)C(=O)O)NC1=O [BT2] (H-CGAKGTKSIPPICFPD-OH; disulfide 1-13; N-terminus and C-terminus assumed) has what Residual trypsin activity?
72.9

Entry CC[C@H](C)[C@@H]1NC(=O)[C@@H]2CCCN2C(=O)[C@@H]2CCCN2C(=O)[C@H]([C@@H](C)CC)NC(=O)[C@H](CO)NC(=O)[C@H](CCCCN)NC(=O)[C@H](C)NC(=O)[C@H](C)NC(=O)[C@H](CCCNC(=N)N)NC(=O)CNC(=O)[C@@H](N)CSSC[C@@H](C(=O)N[C@@H](Cc2ccccc2)C(=O)O)NC1=O [BT26] (H-CGRAAKSIPPICF-OH; disulfide 1-12; N-terminus and C-terminus assumed) has what Residual trypsin activity?
77.6

* * *

- TARGET OR SYSTEM: bovine trypsin (Bos taurus, UniProt P00760)
- Sequence (P00760 24-246): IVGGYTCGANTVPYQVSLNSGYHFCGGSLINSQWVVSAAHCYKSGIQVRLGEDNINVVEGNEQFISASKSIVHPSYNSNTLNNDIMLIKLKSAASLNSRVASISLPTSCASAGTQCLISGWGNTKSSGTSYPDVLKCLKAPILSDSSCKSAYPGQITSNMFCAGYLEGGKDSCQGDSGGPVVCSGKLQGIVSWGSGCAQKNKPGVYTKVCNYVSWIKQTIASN
- ASSAY EXPLANATION: Trypsin inhibitory activity of peptides (BApNA hydrolysis, OD405; IC50, Ki, residual activity)
- Format: biochemical
- REPORTED CONDITIONS: Ki=IC50/(1+S/Km), Km 0.33 mM; read-out: Ki
Bridge positions count the residues as written; N and C are the ends. Peptide text beside a SMILES is read from it.
Assignment: determine reported pKi for the given molecules.
Schema: pKi number; meaning minus log10 of the concentration expressed in molar units.

Entry CC[C@H](C)[C@@H]1NC(=O)[C@@H]2CCCN2C(=O)[C@@H]2CCCN2C(=O)[C@H]([C@@H](C)CC)NC(=O)[C@H](CO)NC(=O)[C@H](CCCCN)NC(=O)[C@H]([C@@H](C)O)NC(=O)[C@H](CC(N)=O)NC(=O)[C@H](CCCNC(=N)N)NC(=O)CNC(=O)[C@@H](N)CSSC[C@@H](C(=O)N[C@@H](Cc2ccccc2)C(=O)O)NC1=O [BT55] (H-CGRNTKSIPPICF-OH; disulfide 1-12; C-terminus assumed) has what pKi?
7.22

Entry CC[C@H](C)[C@@H]1NC(=O)[C@@H]2CCCN2C(=O)[C@@H]2CCCN2C(=O)[C@H]([C@@H](C)CC)NC(=O)[C@H](C)NC(=O)[C@H](CCCCN)NC(=O)[C@H]([C@@H](C)O)NC(=O)[C@H](C)NC(=O)[C@H](CCCNC(=N)N)NC(=O)CNC(=O)[C@@H](N)CSSC[C@@H](C(=O)N[C@@H](Cc2ccccc2)C(=O)O)NC1=O [BT27] (H-CGRATKAIPPICF-OH; disulfide 1-12; C-terminus assumed) has what pKi?
7.22

Entry CC[C@H](C)[C@@H]1NC(=O)[C@@H]2CCCN2C(=O)[C@@H]2CCCN2C(=O)[C@H]([C@@H](C)CC)NC(=O)[C@H](CO)NC(=O)[C@H](CCCCN)NC(=O)[C@H]([C@@H](C)O)NC(=O)[C@H](Cc2c[nH]c3ccccc23)NC(=O)[C@H](CCCNC(=N)N)NC(=O)CNC(=O)[C@@H](N)CSSC[C@@H](C(=O)N[C@@H](Cc2ccccc2)C(=O)O)NC1=O [BT57] (H-CGRWTKSIPPICF-OH; disulfide 1-12; C-terminus assumed) has what pKi?
7.52
